- Tested system: HIV-1 JR-CSF Env N396A (HIV-1 (isolate JR-CSF)) (UniProt P20871)
- Test description: cell-based or functional assay
Experimental readout: Fold IC50 increase relative to wild-type

Example entries and their recorded answers appear below.
Q: Report Fold IC50 increase relative to wild-type for PGT-128 (antibody, V domains shown) VH: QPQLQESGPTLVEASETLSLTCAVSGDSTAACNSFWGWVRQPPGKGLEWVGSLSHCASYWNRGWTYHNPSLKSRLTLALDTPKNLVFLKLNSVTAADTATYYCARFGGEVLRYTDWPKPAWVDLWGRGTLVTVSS VL: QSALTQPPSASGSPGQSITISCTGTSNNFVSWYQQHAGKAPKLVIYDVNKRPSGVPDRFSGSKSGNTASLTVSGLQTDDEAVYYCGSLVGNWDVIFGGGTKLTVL please.
Result: 0.9 fold

Q: Would you kindly share the measured Fold IC50 increase relative to wild-type for PGT-127 (antibody, V domains shown) VH: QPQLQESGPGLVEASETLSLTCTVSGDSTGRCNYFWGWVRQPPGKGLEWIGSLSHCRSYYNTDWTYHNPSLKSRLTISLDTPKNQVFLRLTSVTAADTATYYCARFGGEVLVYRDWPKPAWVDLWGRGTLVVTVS VL: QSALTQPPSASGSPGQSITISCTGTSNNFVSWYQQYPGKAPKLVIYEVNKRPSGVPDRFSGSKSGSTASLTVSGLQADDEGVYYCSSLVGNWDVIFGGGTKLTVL ?
Result: 2.4 fold

Q: Could you share which Fold IC50 increase relative to wild-type value was measured for PGT-130 (antibody, V domains shown) VH: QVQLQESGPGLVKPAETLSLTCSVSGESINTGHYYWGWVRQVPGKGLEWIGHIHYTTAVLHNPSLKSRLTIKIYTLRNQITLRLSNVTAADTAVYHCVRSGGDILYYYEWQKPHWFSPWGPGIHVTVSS VL: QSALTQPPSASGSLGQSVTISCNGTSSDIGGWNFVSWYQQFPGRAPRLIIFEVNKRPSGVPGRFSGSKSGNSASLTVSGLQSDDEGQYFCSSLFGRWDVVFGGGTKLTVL ?
Result: 1 fold

Q: Quick one: Fold IC50 increase relative to wild-type for PGT-125 (antibody, V domains shown) VH: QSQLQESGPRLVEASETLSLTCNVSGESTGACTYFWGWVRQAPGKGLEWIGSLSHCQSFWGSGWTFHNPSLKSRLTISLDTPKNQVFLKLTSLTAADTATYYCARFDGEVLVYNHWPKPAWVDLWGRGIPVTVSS VL: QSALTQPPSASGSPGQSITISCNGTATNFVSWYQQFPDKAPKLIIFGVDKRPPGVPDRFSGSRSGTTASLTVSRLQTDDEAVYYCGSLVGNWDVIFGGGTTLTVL ?
Result: 1.6 fold

# input for lookup
Q: Which Fold IC50 increase relative to wild-type is listed for PGT-126 (antibody, V domains shown) VH: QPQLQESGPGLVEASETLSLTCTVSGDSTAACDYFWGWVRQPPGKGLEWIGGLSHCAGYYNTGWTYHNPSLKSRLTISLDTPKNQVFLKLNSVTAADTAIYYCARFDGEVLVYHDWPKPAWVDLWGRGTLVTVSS VL: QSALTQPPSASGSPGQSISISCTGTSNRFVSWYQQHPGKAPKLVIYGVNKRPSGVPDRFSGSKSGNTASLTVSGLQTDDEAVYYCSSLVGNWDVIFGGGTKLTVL ?
Result: 1.7 fold

Attribution: patent US20200024330A1
